Molecular target: human 5HT1A receptors (Homo sapiens, UniProt P08908)
Assay: [3H] 8-OH-DPAT displacement from 5HT1A receptor in stably transfected CHO cells
Details: CHO cells with human 5HT1A, read-out: 5HT1A Receptor Affinity Ki
Excerpt: High affinity for the serotonin 5HT1A receptor was established by testing the claimed compound's ability to displace [^3H] 8-OH-DPAT (dipropylamino-tetralin) from the 5HT1A serotonin receptor following a modification of the procedure of Hall et al., J. Neurochem. 44, 1685 (1985) which utilizes CHO cells stably transfected with human 5HT1A receptors.
assayEndpoint: Ki (nM)
// note: answer is a bare numeric in nM

Worked examples, 5 molecules total:
molecule: Cc1ccc2c3c(ccc2n1)OC[C@H](CN1CCN(c2ccc4ccccc4c2)CC1)O3 [Example 22]
Ki (nM): 53.2
//
molecule: CCc1ccc2c3c(ccc2n1)OC[C@H](CN1CCN(c2ccc4cc(C#N)ccc4n2)CC1)O3 [Example 25]
Ki (nM): 4.74
//
molecule: Cc1ccc2c3c(ccc2n1)OC[C@H](CN1CCN(c2cccc(Cl)c2)CC1)O3 [Example 1]
Ki (nM): 15.9
//
molecule: N#Cc1ccc2nc(N3CCN(C[C@H]4COc5ccc6ncccc6c5O4)CC3)ccc2c1 [Example 24]
Ki (nM): 7.27
//
molecule: Cc1nc2ccc3c(c2o1)O[C@@H](CN1CCN(c2ccc4cc(C#N)ccc4n2)CC1)CO3 [Example 26]
Ki (nM): 25.1

For the molecule Cc1ccc2c3c(ccc2n1)OC[C@H](CN1CCN(c2ccc4ccccc4n2)C[C@H]1C)O3 [Example 21] , the measured Ki on human 5HT1A receptors (Homo sapiens, UniProt P08908) was 5.53

For the molecule Cc1ccc2c3c(ccc2n1)OC[C@H](CN1CCN(c2ccc4cc(C(N)=O)ccc4n2)CC1)O3 [Example 23] , the measured Ki on human 5HT1A receptors (Homo sapiens, UniProt P08908) was 7.21

For the molecule Cc1ccc2c3c(ccc2n1)OC[C@H](CN1CCN(c2ccc(C)c(C)c2)CC1)O3 [Example 11] , the measured Ki on human 5HT1A receptors (Homo sapiens, UniProt P08908) was 18.2

* * *

Protein target, amino acids: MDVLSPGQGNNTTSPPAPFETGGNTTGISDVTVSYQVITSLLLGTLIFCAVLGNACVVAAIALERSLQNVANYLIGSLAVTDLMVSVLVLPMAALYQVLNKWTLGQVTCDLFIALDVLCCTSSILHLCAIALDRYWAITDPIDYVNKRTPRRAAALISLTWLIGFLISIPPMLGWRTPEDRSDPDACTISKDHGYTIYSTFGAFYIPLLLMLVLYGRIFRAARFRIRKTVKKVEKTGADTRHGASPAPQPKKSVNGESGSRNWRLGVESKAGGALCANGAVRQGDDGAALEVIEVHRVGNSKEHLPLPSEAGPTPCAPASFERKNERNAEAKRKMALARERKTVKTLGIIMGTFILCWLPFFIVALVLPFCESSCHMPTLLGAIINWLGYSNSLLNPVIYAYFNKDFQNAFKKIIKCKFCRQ
assayEndpoint: IC50 (µM)
// note: answer is a bare numeric in µM

molecule: COc1cccc(N2CCN(C[C@H]3COc4ccc5nc(C)ccc5c4O3)CC2)c1 [Example 5]
unitOfMeasure: µM
testResult: 1.72
--
molecule: Cc1ccc2c3c(ccc2n1)OC[C@H](CN1CCN(c2ccc4cc(C#N)ccc4n2)C[C@H]1C)O3 [Example 20]
unitOfMeasure: µM
testResult: 0.0828
--
molecule: Cc1ccc2c3c(ccc2n1)OC[C@H](CN1CCN(c2ccc4cc([N+](=O)[O-])ccc4n2)CC1)O3 [Example 13]
unitOfMeasure: µM
testResult: 0.326

IC50 in this record for Cc1ccc2c3c(ccc2n1)OC[C@H](CN1CCN(c2cccc(C(F)(F)F)c2)CC1)O3 [Example 8] : 3.11

* * *

Target: cloned human 5HT1A receptors (Homo sapiens)
Construct: expressed in transfected cells
Assay: 35S-GTPγS binding assay, 5HT1A antagonist activity
Format: biochemical
Details: maximum inhibitory effect, vs 8-OH-DPAT, unit assumed
// values below are reported 5HT1A Function Imax
// note: answer is a bare numeric in %

Worked examples, 3 molecules total:
substanceSmiles: Cc1ccc2c3c(ccc2n1)OC[C@H](CN1CCN(c2ccc4ccccc4n2)C[C@H]1C)O3
unitOfMeasure: %
5HT1A Function Imax: 83.5
//
substanceSmiles: COc1cccc(N2CCN(C[C@H]3COc4ccc5nc(C)ccc5c4O3)CC2)c1
unitOfMeasure: %
5HT1A Function Imax: 84
//
substanceSmiles: COc1ccc2nc(N3CCCN(C[C@H]4COc5ccc6nc(C)ccc6c5O4)CC3)ccc2c1
unitOfMeasure: %
5HT1A Function Imax: 92

5HT1A Function Imax in this record for `Cc1ccc2c3c(ccc2n1)OC[C@H](CN1CCN(c2ccc4cc(C#N)ccc4n2)C[C@H]1C)O3` : 92

* * *

Biological target: UniProtKB P08908
pIC50: −log10 of the molar value.
Classification field: fulfilled = pIC50 at or over 6; not fulfilled = pIC50 under 6.

Take a look at these entries with their results.
substanceSmiles: Cc1ccc2c3c(ccc2n1)OC[C@H](CN1CCN(c2ccc4cc(Cl)ccc4n2)CC1)O3
label: fulfilled

substanceSmiles: Cc1ccc2c3c(ccc2n1)OC[C@H](CN1CCN(c2ccc4cc(C(N)=O)ccc4n2)CC1)O3
label: fulfilled

substanceSmiles: Cc1ccc2c3c(ccc2n1)OC[C@H](CN1CCN(c2ccc4ccccc4n2)CC1)O3
label: not fulfilled

substanceSmiles: Cc1ccc2c3c(ccc2n1)OC[C@H](CN1CCN(c2ccc4cc(Br)ccc4n2)CC1)O3
label: not fulfilled

substanceSmiles: Cc1ccc2c3c(ccc2n1)OC[C@H](CN1CCN(c2ccc(C)c(C)c2)CC1)O3
label: fulfilled

substanceSmiles: Cc1ccc2c3c(ccc2n1)OC[C@H](CN1CCN(c2ccc4ccccc4c2)CC1)O3
label: not fulfilled

Now for another entry.
Task: I'd appreciate it if you could say whether `Cc1ccc2c3c(ccc2n1)OC[C@H](CN1CCN(c2ccc4ccccc4n2)C[C@@H]1C)O3` has pIC50 at least equal to 6.
Output: not fulfilled

* * *

// values below are reported melting point
Structures can show the parent of a compound that is named as a salt.

compound: Cc1ccc2c3c(ccc2n1)OC[C@H](CN1CCN(c2ccc4cc(Br)ccc4n2)CC1)O3 [Example 27]
assayEndpoint: melting point
testResult: 153 to 154 °C

melting point in this record for Cc1ccc2c3c(ccc2n1)OC[C@H](CN1CCN(c2ccc4cc([N+](=O)[O-])ccc4n2)CC1)O3 (as salt: salt) [Example 13] : 200 °C (dec.)

melting point in this record for COc1ccccc1N1CCN(C[C@H]2COc3ccc4nc(C)ccc4c3O2)CC1 [Example 4] : 44 to 47 °C

melting point in this record for Cc1ccc2c3c(ccc2n1)OC[C@H](CN1CCN(c2ccc(C)c(C)c2)CC1)O3 [Example 11] : 118 to 120 °C

melting point in this record for Cc1ccc2c3c(ccc2n1)OC[C@H](CN1CCN(c2ccc4ccccc4n2)C[C@H]1C)O3 [Example 21] : 78 to 82 °C

melting point in this record for COc1ccc(N2CCN(C[C@H]3COc4ccc5nc(C)ccc5c4O3)CC2)cc1 [Example 6] : 164 to 165 °C

melting point in this record for Cc1ccc2c3c(ccc2n1)OC[C@H](CN1CCN(c2ccc4ccccc4n2)CC1)O3 (as salt: hydrochloride) [Example 12] : 237 to 243 °C

melting point in this record for Cc1ccc2c3c(ccc2n1)OC[C@H](CN1CCCN(c2ccc4cc(C#N)ccc4n2)CC1)O3 [Example 34] : 80 to 85 °C

melting point in this record for Cc1ccc2c3c(ccc2n1)OC[C@H](CN1CCN(c2cccc4c2OCCO4)CC1)O3 (as salt: fumarate) [Example 7] : 154 to 155 °C

melting point in this record for COc1cccc2c(N3CCN(C[C@H]4COc5ccc6nc(C)ccc6c5O4)CC3)coc12 [Example 16] : 56 °C

melting point in this record for Cc1ccc2c3c(ccc2n1)OC[C@H](CN1CCN(c2ccc(Cl)c(Cl)c2)CC1)O3 (as salt: fumarate) [Example 3] : 140 to 144 °C

melting point in this record for Cc1ccc2c3c(ccc2n1)OC[C@H](CN1CCN(c2cccc(Cl)c2)CC1)O3 [Example 1] : 110 to 112 °C

melting point in this record for COc1cccc(N2CCN(C[C@H]3COc4ccc5nc(C)ccc5c4O3)CC2)c1 [Example 5] : 90 to 91 °C

melting point in this record for Cc1ccc2c3c(ccc2n1)OC[C@H](CN1CCN(c2cccc(C(F)(F)F)c2)CC1)O3 [Example 8] : 123 to 124 °C

melting point in this record for Cc1ccc2c3c(ccc2n1)OC[C@H](CN1CCN(c2cccc(C)c2C)CC1)O3 [Example 10] : 112 to 113 °C

melting point in this record for Cc1ccc2c3c(ccc2n1)OC[C@H](CN1CCN(c2ccc4ccccc4n2)C[C@@H]1C)O3 [Example 19] : 141 to 144 °C

melting point in this record for COc1ccc2nc(N3CCN(C[C@H]4COc5ccc6nc(C)ccc6c5O4)CC3)ccc2c1 [Example 30] : 158 to 160 °C

These entries and their values trace back to patent US7153849B2.
